Assay: Mouse pharmacokinetics, i.v. bolus
Conditions: in vivo, iv, male ICR (CD-1) mice, single 1 mg/kg slow i.v. bolus, plasma, LC-MS/MS, noncompartmental from mean profile, n = 3/time point, read-out: Vss (volume of distribution at steady state)
Starred links: 1 amine or outer side, 2 acyl side, 3 side chain; linkers in the order of their positions; H or OH if unused. Positions of bridges follow the written chain, without caps; N, C: chain ends. Non-standard residues stand in square brackets, D forms with d. Residues, ends and D or L forms follow the SMILES beside them. *: point of attachment. Orn(4R-OH,5R-OCH2CH2NMe3+) = C[N+](C)(C)CCO[C@@H](N[*:3])[C@H](O)C[C@H](N[*:1])C(=O)[*:2]; pTerphenylCO(4''-OnC5H11) = CCCCCOc1ccc(-c2ccc(-c3ccc(C(=O)*)cc3)cc2)cc1; hTyr(3S-OH,4S-OH) = N[C@H](C(=O)O)[C@H](O)[C@@H](O)c1ccc(O)cc1; Pro(3S-OH,4S-Me) = C[C@H]1CN[C@H](C(=O)O)[C@H]1O; Hyp = O=C(O)[C@@H]1C[C@@H](O)CN1
readout.kind: Vd (L/kg)
State just the number; it will be interpreted in L/kg.

stdin: # input compound: CCCCCOc1ccc(-c2ccc(-c3ccc(C(=O)N[C@H]4C[C@@H](O)[C@@H](OCC[N+](C)(C)C)NC(=O)[C@@H]5[C@@H](O)[C@@H](C)CN5C(=O)[C@H]([C@@H](C)O)NC(=O)[C@H]([C@H](O)[C@@H](O)c5ccc(O)cc5)NC(=O)[C@@H]5C[C@@H](O)CN5C(=O)[C@H]([C@@H](C)O)NC4=O)cc3)cc2)cc1 [CD101] ({pTerphenylCO(4''-OnC5H11)}-[Orn(4R-OH,5R-OCH2CH2NMe3+)]T[Hyp][hTyr(3S-OH,4S-OH)]T[Pro(3S-OH,4S-Me)]; lactam 1-C) ; wanted: its Vd
stdout: 0.206
